compounds and their reported viability at 24 h, 20 μg/mL
- assayName: MTT reduction cytotoxicity assay
- Format: cell-based, mouse
- runConditions: mouse, L929 cells (mouse fibroblasts), 20 μg/mL, read-out: mean percentage of viable cells ± SD

Previously resolved entries follow.
| compound | viability at 24 h, 20 μg/mL |
| --- | --- |
| CC1CC(=O)OC(c2ccccc2)C1Cl (stereo not shown) | 4% |
| CC1CC(=O)OC(c2ccccc2)C1Br (stereo not shown) | 5% |
| CC1CC(=O)OC(c2cccc3ccccc23)C1Br (stereo not shown) | 2% |

Ask: Answer with reported viability at 24 h, 20 μg/mL of CC1CC(=O)OC(c2ccccc2)C1I (stereo not shown)
Result: 4%

Ask: Answer with reported viability at 24 h, 20 μg/mL of C[C@@H]1CC(=O)O[C@H](c2cccc3ccccc23)[C@H]1Cl (relative stereo)
Result: 5%

Ask: Answer with reported viability at 24 h, 20 μg/mL of C[C@@H]1CC(=O)O[C@H]1[C@@H](O)c1cccc2ccccc12 (mixture of isomers) [12a]
Result: 3%

Ask: Answer with reported viability at 24 h, 20 μg/mL of C[C@@H]1CC(=O)O[C@@H]1[C@@H](O)c1cccc2ccccc12 [13a]
Result: 5%

###

- Test system: AGS cell lines (human gastric adenocarcinoma)
- assayName: MTT reduction cytotoxicity assay
- Type: cell-based
- runConditions: 10 μg/mL, 24 h
measureName: mean percentage of viable cells ± SD (%)
Provide only the numeric value, understood in %.

Previously resolved entries follow.
| molecule | measuredValue |
| --- | --- |
| CC1CC(=O)OC(c2ccc(F)cc2)C1Cl (centres unmarked) [5c] | 34 |
| CC1CC(=O)OC(c2ccccc2)C1Cl (mixture of isomers) | 21 |
| CC1CC(=O)OC(c2ccc(F)cc2)C1I (centres unmarked) [9c] | 23 |
| CC1CC(=O)OC(c2ccccc2)C1Br (mixture of isomers) | 28 |
| CC1CC(=O)OC(c2cccc3ccccc23)C1Br (mixture of isomers) | 25 |

Ask: Answer with reported mean percentage of viable cells ± SD of CC1CC(=O)OC(c2ccc(F)cc2)C1Br (mixture of isomers) [8c]
Result: 18

Ask: Answer with reported mean percentage of viable cells ± SD of CC1CC(=O)OC(c2ccc(F)cc2)C1Cl (mixture of isomers) [6c]
Result: 16

Ask: Answer with reported mean percentage of viable cells ± SD of CC1CC(=O)OC(c2cccc3ccccc23)C1Cl (mixture of isomers)
Result: 19

###

compounds and their reported mean percentage of viable cells ± SD
- System: L929 cell lines (mouse fibroblasts)
- assayName: MTT reduction cytotoxicity assay
- Format: cell-based
- runConditions: 5 μg/mL, 24 h
Provide only the numeric value, understood in %.

Ask: Answer with reported mean percentage of viable cells ± SD of CC1CC(=O)OC(c2cccc3ccccc23)C1Cl (mixture of isomers)
Result: 9

Ask: Answer with reported mean percentage of viable cells ± SD of CC1CC(=O)OC(c2ccc(F)cc2)C1Cl (mixture of isomers) [6c]
Result: 18

Ask: Answer with reported mean percentage of viable cells ± SD of CC1CC(=O)OC(c2ccc(F)cc2)C1Cl (stereo not drawn) [5c]
Result: 14

Ask: Answer with reported mean percentage of viable cells ± SD of CC1CC(=O)OC(c2ccc(F)cc2)C1Br (stereo not drawn) [7c]
Result: 17

Ask: Answer with reported mean percentage of viable cells ± SD of CC1CC(=O)OC(c2ccccc2)C1I (mixture of isomers) [10b]
Result: 15

Ask: Answer with reported mean percentage of viable cells ± SD of CC1CC(=O)OC(c2ccc(F)cc2)C1I (stereo not drawn) [9c]
Result: 9

###

- assayName: MTT reduction cytotoxicity assay
- Assay type: cell-based, mouse
- runConditions: mouse, L929 cells (mouse fibroblasts), 0.5 μg/mL, read-out: mean percentage of viable cells ± SD
molecules and their reported viability at 24 h, 0.5 μg/mL
Provide only the numeric value, understood in %.

| molecule | viability at 24 h, 0.5 μg/mL / % |
| --- | --- |
| C[C@@H]1CC(=O)O[C@H](c2cccc3ccccc23)[C@H]1Cl (relative stereo) [5a] | 15 |
| CC1CC(=O)OC(c2ccccc2)C1I (stereo not shown) [9b] | 18 |
| CC1CC(=O)OC(c2ccccc2)C1Cl (stereo not shown) [5b] | 18 |
| CC1CC(=O)OC(c2cccc3ccccc23)C1Br (stereo not shown) [7a] | 18 |
| C[C@@H]1CC(=O)O[C@@H]1[C@@H](O)c1cccc2ccccc12 [13a] | 12 |
| C[C@@H]1CC(=O)O[C@H]1[C@@H](O)c1cccc2ccccc12 (mixture of isomers) [12a] | 15 |

Now look at this entry.
Ask: Answer with reported viability at 24 h, 0.5 μg/mL of CC1CC(=O)OC(c2ccccc2)C1Br (stereo not shown) [7b]
Result: 18

###

- assayName: MTT reduction cytotoxicity assay
- Type: cell-based, human
- runConditions: human, AGS cells (human gastric adenocarcinoma), 5 μg/mL, 24 h, read-out: mean percentage of viable cells ± SD
measureName: viability at 24 h, 5 μg/mL (%)
Provide only the numeric value, understood in %.

| molecule | measuredValue |
| --- | --- |
| CC1CC(=O)OC(c2ccccc2)C1I (stereo not shown) [9b] | 43 |

Ask: Answer with reported viability at 24 h, 5 μg/mL of CC1CC(=O)OC(c2ccccc2)C1Cl (stereo not shown) [5b]
Result: 16

Ask: Answer with reported viability at 24 h, 5 μg/mL of C[C@@H]1CC(=O)O[C@H]1[C@@H](O)c1cccc2ccccc12 (mixture of isomers) [12a]
Result: 22

Ask: Answer with reported viability at 24 h, 5 μg/mL of CC1CC(=O)OC(c2ccccc2)C1Br (stereo not shown) [7b]
Result: 23

Ask: Answer with reported viability at 24 h, 5 μg/mL of CC1CC(=O)OC(c2cccc3ccccc23)C1Br (stereo not shown) [7a]
Result: 25

Ask: Answer with reported viability at 24 h, 5 μg/mL of C[C@@H]1CC(=O)O[C@@H]1[C@@H](O)c1cccc2ccccc12 [13a]
Result: 29

Ask: Answer with reported viability at 24 h, 5 μg/mL of C[C@@H]1CC(=O)O[C@H](c2cccc3ccccc23)[C@H]1Cl (relative stereo) [5a]
Result: 43

###

- Tested on: AGS cell lines (human gastric adenocarcinoma)
- assayName: MTT reduction cytotoxicity assay
- Assay type: cell-based
We label by threshold. Values of IC50 strictly beneath 2 µM are satisfied. Values of 2 µM and up are not satisfied.

Please review the entries below; each comes with its answer.
| molecule | targetOrTestSystem | label |
| --- | --- | --- |
| CC1CC(=O)OC(c2ccc(F)cc2)C1Br (mixture of isomers) [8c] | AGS cell lines (human gastric adenocarcinoma) | not satisfied |
| CC1CC(=O)OC(c2ccc(F)cc2)C1I (centres unmarked) [9c] | AGS cell lines (human gastric adenocarcinoma) | satisfied |
| CC1CC(=O)OC(c2ccccc2)C1I (mixture of isomers) [10b] | AGS cell lines (human gastric adenocarcinoma) | satisfied |
| CC1CC(=O)OC(c2ccccc2)C1Br (mixture of isomers) | AGS cell lines (human gastric adenocarcinoma) | satisfied |

Ask: Hello, is IC50 of the following molecule strictly smaller than 2 µM? CC1CC(=O)OC(c2ccc(F)cc2)C1Cl (mixture of isomers) [6c]
Result: not satisfied

Ask: Hello, is IC50 of the following molecule strictly smaller than 2 µM? CC1CC(=O)OC(c2ccc(F)cc2)C1Cl (centres unmarked) [5c]
Result: satisfied

Ask: Hello, is IC50 of the following molecule strictly smaller than 2 µM? CC1CC(=O)OC(c2ccc(F)cc2)C1I (mixture of isomers) [10c]
Result: satisfied

Ask: Hello, is IC50 of the following molecule strictly smaller than 2 µM? CC1CC(=O)OC(c2ccc(F)cc2)C1Br (centres unmarked) [7c]
Result: not satisfied

Ask: Hello, is IC50 of the following molecule strictly smaller than 2 µM? CC1CC(=O)OC(c2cccc3ccccc23)C1Br (mixture of isomers)
Result: satisfied

Ask: Hello, is IC50 of the following molecule strictly smaller than 2 µM? CC1CC(=O)OC(c2cccc3ccccc23)C1Cl (mixture of isomers)
Result: satisfied

Ask: Hello, is IC50 of the following molecule strictly smaller than 2 µM? CC1CC(=O)OC(c2ccccc2)C1Cl (mixture of isomers)
Result: not satisfied

###

compounds and their reported viability at 24 h, 20 μg/mL
- assayName: MTT reduction cytotoxicity assay
- Format: cell-based, human
- runConditions: human, AGS cells (human gastric adenocarcinoma), 20 μg/mL, 24 h, read-out: mean percentage of viable cells ± SD
Provide only the numeric value, understood in %.

| compound | measuredValue |
| --- | --- |
| C[C@@H]1CC(=O)O[C@H](c2cccc3ccccc23)[C@H]1Cl (relative stereo) [5a] | 18 |
| CC1CC(=O)OC(c2ccccc2)C1Br (stereo not shown) [7b] | 14 |
| CC1CC(=O)OC(c2ccccc2)C1Cl (stereo not shown) [5b] | 11 |
| C[C@@H]1CC(=O)O[C@H]1[C@@H](O)c1cccc2ccccc12 (mixture of isomers) [12a] | 13 |
| C[C@@H]1CC(=O)O[C@@H]1[C@@H](O)c1cccc2ccccc12 [13a] | 10 |
| CC1CC(=O)OC(c2ccccc2)C1I (stereo not shown) [9b] | 15 |

Ask: Answer with reported viability at 24 h, 20 μg/mL of CC1CC(=O)OC(c2cccc3ccccc23)C1Br (stereo not shown) [7a]
Result: 20
